Assay target: T1, PSMA Fab (biotinylated (site not stated))
T1 construct: also called Anti-PSMA Fab; 006 PSMA Fab
Assay explanation: clonal phage ELISA on biotinylated PSMA Fab captured on neutravidin plates, anti-M13 HRP detection;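 also: crude clonal phage supernatants tested, before phage were added, wells were pretreated with PSMA antigen in blocking buffer or with blocking buffer only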
Where no end group is shown, it is not given here.
Property measured: Phage binding ELISA signal, Anti-PSMA Fab
// keep it numeric: no unit symbol after the value

Consider the reported Phage binding ELISA signal, Anti-PSMA Fab for these binders:
{"Binder": "LWKSCTPEWMCAEW (cysteine pairing not given here; also: fused to pIII, displayed on bacteriophage) [Phage-2787]", "Measured result": 0.606}
{"Binder": "SDNWCKPEWMCVGH [Phage-2801]", "Measured result": 0.578}
{"Binder": "HFKWCIPPWMCLEI [Phage-2798]", "Measured result": 0.588}
{"Binder": "LNNWCTPAWMCVGY [Phage-2796]", "Measured result": 0.589}
{"Binder": "VMKWCTPSWMCAEA (cysteine pairing not given here; also: fused to pIII, displayed on bacteriophage) [Phage-2790]", "Measured result": 0.599}

Name the reported Phage binding ELISA signal, Anti-PSMA Fab value associated with the binder WEKWCTPSWMCSGI [Phage-2791] 0.598
